target: CD73 (Homo sapiens (Human), UniProt P21589); assay: CD73 Biochemical IC50 Assay; settings: CD73 0.3 nM, AMP 15 uM, 25 mM Tris pH 7.4, 5 mM MgCl2
Sequence (P21589 27-574): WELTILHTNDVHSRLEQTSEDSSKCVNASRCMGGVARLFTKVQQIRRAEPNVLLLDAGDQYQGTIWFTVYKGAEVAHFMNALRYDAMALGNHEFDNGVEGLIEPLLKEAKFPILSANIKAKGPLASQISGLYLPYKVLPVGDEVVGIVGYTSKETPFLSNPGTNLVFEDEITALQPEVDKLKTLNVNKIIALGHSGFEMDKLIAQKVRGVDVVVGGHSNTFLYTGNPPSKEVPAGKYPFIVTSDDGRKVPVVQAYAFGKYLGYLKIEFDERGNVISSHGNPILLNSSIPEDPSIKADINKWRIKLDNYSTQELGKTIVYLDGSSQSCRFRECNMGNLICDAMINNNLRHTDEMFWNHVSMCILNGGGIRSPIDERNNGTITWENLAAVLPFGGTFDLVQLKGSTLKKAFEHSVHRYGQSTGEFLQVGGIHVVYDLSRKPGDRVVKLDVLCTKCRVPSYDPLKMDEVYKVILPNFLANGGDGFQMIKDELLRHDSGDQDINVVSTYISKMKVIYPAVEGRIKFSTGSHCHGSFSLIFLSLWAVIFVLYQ
pIC50: −log10 of the molar value.
Please use fulfilled whenever pIC50 is not below 7, and not fulfilled whenever it is.

Worked cases, answers included:
Cc1nc2c(C3CCC(F)(F)CC3)cc(-c3c[nH]c(=O)[nH]c3=O)nn2n1 = not fulfilled
O=c1[nH]cc(-c2cc(OC3CC3)c3nccn3n2)c(=O)[nH]1 = not fulfilled
N#Cc1ccc([C@H]2C[C@@H]2c2cc(-c3c[nH]c(=O)[nH]c3=O)nn3ccnc23)cc1F (racemic) = fulfilled
CC1(C)CCN(c2cc(-c3c[nH]c(=O)[nH]c3=O)nc3ncnn23)C1 = fulfilled
O=c1[nH]cc(-c2cc([C@H]3C[C@@H]3Cc3ccccc3)c3nccn3n2)c(=O)[nH]1 (racemic) = not fulfilled

-- ask Please check the record `O=c1[nH]cc(-c2cc(-n3cccn3)c3nccn3n2)c(=O)[nH]1` and state if its pIC50 is at or above 7.
-- reply not fulfilled

-- ask Further, for `O=c1[nH]cc(-c2cc([C@H]3C[C@@H]3c3ccc(F)c(F)c3)c3ncc(F)n3n2)c(=O)[nH]1` ?
-- reply fulfilled

-- ask Further, for `O=c1[nH]cc(-c2cc(N3CC(C(F)(F)F)C3)c3nccn3n2)c(=O)[nH]1` ?
-- reply fulfilled

-- ask Further, for `O=c1[nH]cc(-c2cc(N3CCC(F)(F)C3)c3nccn3n2)c(=O)[nH]1` ?
-- reply fulfilled

-- ask Further, for `O=c1[nH]cc(-c2cc(C3CC3)c3nc(-c4cccnc4)cn3n2)c(=O)[nH]1` ?
-- reply not fulfilled

-- ask Further, for O=c1[nH]cc(-c2cc([C@H]3C[C@@H]3c3ccc(F)cc3)c3ncc(F)n3n2)c(=O)[nH]1 (racemic) ?
-- reply fulfilled

----------
molecular target: CD73 (Homo sapiens (Human), UniProt P21589); type: biochemical; conditions: 1 mM NaH2PO4 in enzyme buffer, CD73 0.3 nM, AMP 15 uM
Category | rule: reported IC50 within range, see bin A: < 2 nM; bin B: ≥ 2 nM and < 9 nM; bin C: ≥ 9 nM

Worked cases, answers included:
O=C(c1cccc([C@H]2C[C@@H]2c2cc(-c3c[nH]c(=O)[nH]c3=O)nn3ccnc23)c1)N1CCC(F)(F)C1 (racemic) = bin A
O=c1[nH]cc(-c2cc(N3CCC(F)(C(F)(F)F)C3)c3nccn3n2)c(=O)[nH]1 (centres unmarked) = bin C
O=C(NCC(F)(F)F)OCC1(F)CN(c2cc(-c3c[nH]c(=O)[nH]c3=O)nn3ccnc23)C1 = bin C
CC(C)NC(=O)O[C@H]1CN(c2cc(-c3c[nH]c(=O)[nH]c3=O)nn3ccnc23)CC1(F)F = bin A
O=c1[nH]cc(-c2cc([C@H]3C[C@@H]3c3cc(OCC(F)(F)F)c4cccnc4c3)c3nccn3n2)c(=O)[nH]1 (racemic) = bin B

-- ask Could you place `O=c1[nH]cc(-c2cc([C@H]3C[C@@H]3c3ccc4cnn(CC(F)(F)F)c4c3)c3ncc(F)n3n2)c(=O)[nH]1` in its proper category? Many thanks.
-- reply bin A

-- ask Further, for CC(=O)NC1CCN(c2cc(-c3c[nH]c(=O)[nH]c3=O)nc3ccnn23)C1 (centres unmarked) ?
-- reply bin C

-- ask Further, for O=c1[nH]cc(-c2cc([C@H]3C[C@@H]3c3ccc4nc5n(c4c3)C(C(F)(F)F)CC5)c3nccn3n2)c(=O)[nH]1 (mixture of isomers) ?
-- reply bin B

-- ask Further, for `N#Cc1ccc(C2CN(c3cc(-c4c[nH]c(=O)[nH]c4=O)nn4ccnc34)C2)cc1` ?
-- reply bin C

-- ask Further, for CC(C)(O)[C@H]1C[C@@H]1c1cc(-c2c[nH]c(=O)[nH]c2=O)nn2ccnc12 (racemic) ?
-- reply bin C

-- ask Further, for `O=c1[nH]cc(-c2cc(OCC(F)(F)C3CC3)c3nccn3n2)c(=O)[nH]1` ?
-- reply bin B
